Where do the numbers come from? From the supplement of paper PMC7877785.

Property: self-splicing fitness (ln); scope: individual sequences
test.protocol: self-splicing fitness, log relative to wild type (ln ratio); higher = more splicing; Tetrahymena group I intron in knt gene, E. coli kanamycin selection, DiMSum; sequences stand for … in CUCUCU…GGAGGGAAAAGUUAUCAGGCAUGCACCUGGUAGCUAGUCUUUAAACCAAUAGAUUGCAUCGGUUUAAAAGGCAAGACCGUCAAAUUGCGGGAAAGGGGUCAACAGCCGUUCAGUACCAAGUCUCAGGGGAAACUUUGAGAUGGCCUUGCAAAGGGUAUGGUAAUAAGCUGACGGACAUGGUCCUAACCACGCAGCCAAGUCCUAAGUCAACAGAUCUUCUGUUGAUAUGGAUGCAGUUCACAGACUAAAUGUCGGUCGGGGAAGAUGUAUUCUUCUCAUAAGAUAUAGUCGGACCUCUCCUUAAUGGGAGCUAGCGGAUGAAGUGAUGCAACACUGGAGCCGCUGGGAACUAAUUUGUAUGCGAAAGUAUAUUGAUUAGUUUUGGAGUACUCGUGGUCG;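 also: selection with 25 µg/mL kanamycin versus none on LB agar overnight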
cond: 37 °C

# chain.sequence, self-splicing fitness (ln)
data = [
    ("GAACAGCAAUAUUACGUACU", -0.125),
    ("UGCAAGCAAUAUUACGUGUC", -3.56),
    ("ACGUAGCAAUAUUACGCUUG", -1.28),
    ("GUGAAGCAAUAUUACGUUUA", -0.109),
    ("UGAGAGCAAUAUUACGCACA", -0.659),
    ("GACGAGCAAUAUUACGGCUA", -0.653),
    ("AUUUAGCAAUAUUACGUCUG", -1.15),
    ("CUCCAGCAAUAUUACGUGCU", -2.58),
    ("GACUAGCAAUAUUACGGCUG", -0.193),
    ("AUCAAGCAAUAUUACGCAGU", -1.71),
    ("GCGUAGCAAUAUUACGGUGC", -2.95),
    ("UUCUAGCAAUAUUACGAAGC", -1.2),
    ("CAUUAGCAAUAUUACGAUGA", -1.09),
    ("UUAUAGCAAUAUUACGCCGG", -0.599),
    ("GCGCAGCAAUAUUACGGGUA", -1.59),
    ("AGAAAGCAAUAUUACGUAUC", -2.34),
    ("AGCCAGCAAUAUUACGAAUU", -1.44),
    ("ACCGAGCAAUAUUACGAGUG", -1.49),
    ("CCGUAGCAAUAUUACGCCCG", -0.0634),
    ("UCGAAGCAAUAUUACGAGGU", -2.03),
    ("CAUUAGCAAUAUUACGCGAU", -1.52),
    ("UCGAAGCAAUAUUACGUCCG", -0.412),
    ("GCGUAGCAAUAUUACGGGGU", -1.86),
    ("CUUGAGCAAUAUUACGGCUU", -2.41),
    ("UACUAGCAAUAUUACGGCCC", -2.36),
    ("CGCAAGCAAUAUUACGAUUC", -2.17),
    ("GCCCAGCAAUAUUACGUAGG", -2.15),
    ("AUCUAGCAAUAUUACGAUUU", 0.317),
    ("CCGCAGCAAUAUUACGGGGA", -2.35),
    ("GAGCAGCAAUAUUACGACAC", -0.627),
    ("AAACAGCAAUAUUACGACGG", -1.13),
    ("GACAAGCAAUAUUACGACGU", -0.167),
    ("ACUAAGCAAUAUUACGAAUC", -1.05),
    ("GUGAAGCAAUAUUACGCUAG", 0.0205),
]

---

test.protocol: self-splicing fitness, log relative to wild type (ln ratio); higher = more splicing; Tetrahymena group I intron in knt gene, E. coli kanamycin selection, DiMSum; sequences stand for … in CUCUCU…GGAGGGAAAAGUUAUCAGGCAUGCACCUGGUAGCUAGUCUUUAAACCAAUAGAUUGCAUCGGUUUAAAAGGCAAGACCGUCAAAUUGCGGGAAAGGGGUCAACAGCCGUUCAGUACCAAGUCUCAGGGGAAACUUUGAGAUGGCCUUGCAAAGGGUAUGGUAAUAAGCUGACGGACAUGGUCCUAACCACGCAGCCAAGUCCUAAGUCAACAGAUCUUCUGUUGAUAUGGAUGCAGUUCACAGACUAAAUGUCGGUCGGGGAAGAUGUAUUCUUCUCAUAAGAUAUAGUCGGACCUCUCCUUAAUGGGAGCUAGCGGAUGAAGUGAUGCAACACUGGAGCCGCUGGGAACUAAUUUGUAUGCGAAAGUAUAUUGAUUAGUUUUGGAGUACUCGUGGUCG
cond: 30 °C

# chain.sequence, self-splicing fitness (ln)
data = [
    ("ACUAAGCAAUAUUACGUGCG", -0.891),
    ("UUAGAGCAAUAUUACGGAAC", -4.11),
    ("GAACAGCAAUAUUACGGCGG", -3.13),
    ("AACGAGCAAUAUUACGCAAG", -3.43),
    ("ACCAAGCAAUAUUACGGUAA", -2.9),
    ("GGGAAGCAAUAUUACGACAU", -0.662),
    ("GCACAGCAAUAUUACGGUUA", -0.902),
    ("CUCAAGCAAUAUUACGUGAC", -2.46),
    ("UAUCAGCAAUAUUACGGCUC", -1.86),
    ("GAUGAGCAAUAUUACGACUC", -1.68),
    ("CAAAAGCAAUAUUACGAAGC", -4.63),
    ("AUCCAGCAAUAUUACGAAAG", -3.77),
    ("AGCCAGCAAUAUUACGUUAG", -3.07),
    ("GUAAAGCAAUAUUACGUUCC", -2.91),
    ("UCGAAGCAAUAUUACGAGGG", -2.48),
    ("ACAAAGCAAUAUUACGCGAC", -2.02),
    ("CAAUAGCAAUAUUACGAAGG", -1.86),
    ("GUGCAGCAAUAUUACGGGGU", -2.79),
    ("UUACAGCAAUAUUACGUACG", -0.291),
    ("CACCAGCAAUAUUACGCGAA", -4.18),
    ("CCGGAGCAAUAUUACGCGCA", -2.85),
    ("ACAGAGCAAUAUUACGUUUA", -3.01),
    ("AAAGAGCAAUAUUACGGUUA", -2.49),
    ("CCUCAGCAAUAUUACGCUUC", -3.45),
    ("GGUGAGCAAUAUUACGGCCG", -1.15),
    ("UUAAAGCAAUAUUACGGUGA", -0.488),
    ("UUAUAGCAAUAUUACGUCAA", -1.61),
    ("GCCUAGCAAUAUUACGGUAA", -0.151),
    ("GACCAGCAAUAUUACGCUAA", -1.18),
    ("AGGCAGCAAUAUUACGGGUU", -3.33),
    ("GCGAAGCAAUAUUACGUGAC", -1.51),
    ("GGAAAGCAAUAUUACGAAAU", -1.52),
    ("AAGGAGCAAUAUUACGGUAC", -3.2),
    ("AUCCAGCAAUAUUACGUAGA", -0.783),
    ("UGGCAGCAAUAUUACGCACC", -2.36),
    ("CCUAAGCAAUAUUACGAACG", -1.68),
    ("GGCGAGCAAUAUUACGCUGU", -2.63),
    ("AAAAAGCAAUAUUACGGUGA", -0.824),
    ("GUUAAGCAAUAUUACGCUGG", -0.613),
    ("UAUUAGCAAUAUUACGCGCG", -0.142),
    ("CGGGAGCAAUAUUACGUAGA", -3.97),
    ("AUUCAGCAAUAUUACGUGCA", -0.628),
    ("AGAAAGCAAUAUUACGUAGU", -2.98),
    ("ACGGAGCAAUAUUACGCAGU", -3.19),
    ("CAUCAGCAAUAUUACGUCCU", -3.78),
    ("AGGCAGCAAUAUUACGUUGC", -4.18),
    ("ACCGAGCAAUAUUACGGUGU", -2.88),
    ("CUCCAGCAAUAUUACGAAAC", -3.94),
    ("GUGUAGCAAUAUUACGCGUG", -3.82),
    ("UCGUAGCAAUAUUACGGGUA", -1.57),
    ("AGCCAGCAAUAUUACGCGUC", -2.8),
    ("CCCGAGCAAUAUUACGUAAU", -4.75),
    ("AUAUAGCAAUAUUACGGCUA", -0.422),
    ("UGAGAGCAAUAUUACGAGUU", -3.31),
    ("ACUGAGCAAUAUUACGGAUU", -3.91),
    ("CGGCAGCAAUAUUACGUCGU", -3.21),
    ("GGCCAGCAAUAUUACGCUUG", -4.13),
    ("GACCAGCAAUAUUACGGACG", 0.108),
    ("UAUCAGCAAUAUUACGACGU", -1.22),
    ("CAGCAGCAAUAUUACGGCCG", -0.67),
    ("UUCUAGCAAUAUUACGGCCA", -2.24),
    ("GGCAAGCAAUAUUACGACGA", -1.37),
    ("AAACAGCAAUAUUACGCAGG", -2.41),
    ("GAACAGCAAUAUUACGGUGC", -1.38),
    ("CGGCAGCAAUAUUACGAGCC", -2.78),
    ("UCUCAGCAAUAUUACGAUCU", -1.68),
    ("UCCGAGCAAUAUUACGCAUG", -2.8),
]
